target-system: DNMT3a (Homo sapiens)
Sequence (Q9Y6K1 whole entry, looked up): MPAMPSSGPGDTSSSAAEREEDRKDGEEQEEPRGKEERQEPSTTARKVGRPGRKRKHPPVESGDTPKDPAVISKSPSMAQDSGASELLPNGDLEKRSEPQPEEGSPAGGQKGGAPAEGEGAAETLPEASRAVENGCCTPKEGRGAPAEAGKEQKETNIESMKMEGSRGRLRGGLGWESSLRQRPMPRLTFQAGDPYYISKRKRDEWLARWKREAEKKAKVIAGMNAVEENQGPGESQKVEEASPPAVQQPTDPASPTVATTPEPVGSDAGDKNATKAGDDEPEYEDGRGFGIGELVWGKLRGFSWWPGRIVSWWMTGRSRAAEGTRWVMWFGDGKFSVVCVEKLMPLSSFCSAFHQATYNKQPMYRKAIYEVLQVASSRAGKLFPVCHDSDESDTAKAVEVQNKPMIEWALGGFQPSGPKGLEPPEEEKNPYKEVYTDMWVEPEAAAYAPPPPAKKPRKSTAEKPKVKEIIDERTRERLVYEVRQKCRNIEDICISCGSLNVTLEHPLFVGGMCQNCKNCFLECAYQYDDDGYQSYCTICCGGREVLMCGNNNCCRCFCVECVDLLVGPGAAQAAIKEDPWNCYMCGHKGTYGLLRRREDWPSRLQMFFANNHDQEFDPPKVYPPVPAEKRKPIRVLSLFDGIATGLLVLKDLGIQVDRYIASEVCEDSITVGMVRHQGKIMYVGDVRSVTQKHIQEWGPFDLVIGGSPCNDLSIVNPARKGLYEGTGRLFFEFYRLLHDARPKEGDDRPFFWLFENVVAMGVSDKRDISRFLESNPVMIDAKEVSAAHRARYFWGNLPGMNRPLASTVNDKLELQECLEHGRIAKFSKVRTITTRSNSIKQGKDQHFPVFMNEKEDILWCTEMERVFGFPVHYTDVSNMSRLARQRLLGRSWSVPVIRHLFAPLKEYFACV
test-summary: DNMT3a activity assay (Lambda DNA substrate, ^3H-SAM)
Assay type: biochemical
measurement-setup: read-out: IC50, DNMT3a activity
pIC50: −log10 of the molar value.

molecule	target-system	pIC50
C[C@H](CCCC(C)(C)O)[C@H]1CC[C@H]2[C@@H]3CC=C4C[C@@H](OS(=O)(=O)O)CC[C@]4(C)[C@H]3CC[C@]12C [25HC3S, 5-Cholesten-3β, 25-diol 3-sulfate]	DNMT3a (Homo sapiens)	5.52

====

target-system: DNMT3b (Homo sapiens, UniProt Q9UBC3)
test-summary: DNMT3b activity assay (Lambda DNA substrate, ^3H-SAM)
Assay type: biochemical
measurement-setup: read-out: IC50, DNMT3b activity

compound	target-system	IC50
C[C@H](CCCC(C)(C)O)[C@H]1CC[C@H]2[C@@H]3CC=C4C[C@@H](OS(=O)(=O)O)CC[C@]4(C)[C@H]3CC[C@]12C [25HC3S, 5-Cholesten-3β, 25-diol 3-sulfate]	DNMT3b (Homo sapiens, UniProt Q9UBC3)	9.05 µM
